Assay: Plasma pharmacokinetics and brain distribution after single IV, IP and oral administration
Type: in vivo
Settings: male, C57BL/6, mouse, in vivo, ip, 10 mg/kg, Brain concentration, individual animal
Counter-ions that a name gives are not always drawn.
Measure: concentration at 0.35 h (ng/g)
Numeric only. Scale: ng/g

[2H]C([2H])([2H])Oc1ccc(Nc2nc(-c3c(C)nc4ccccn34)cs2)cc1 [Compound 15, hydrochloride]    287

Entry [2H]C1([2H])Oc2ccc(Nc3nc(-c4c(C)nc5ccccn45)cs3)cc2O1 [Compound 17, hydrochloride] — recorded concentration at 0.35 h = 291

###

Assay: Plasma pharmacokinetics and brain distribution after single IV, IP and oral administration
Assay type: in vivo
Conditions: male, C57BL/6, mouse, in vivo; PO 10 mg/kg, 0.08 hr; read-out: Mean brain conc.
Counter-ions that a name gives are not always drawn.
Measure: concentration at 0.08 h (ng/g)
Numeric only. Scale: ng/g

Entry [2H]C1([2H])Oc2ccc(Nc3nc(-c4c(C)nc5ccccn45)cs3)cc2O1 [Compound 17, hydrochloride] — recorded concentration at 0.08 h = 67.3

###

Assay: Plasma pharmacokinetics and brain distribution after single IV, IP and oral administration
Assay type: in vivo
Conditions: male, C57BL/6, mouse, in vivo, ip, 10 mg/kg, Plasma concentration, individual animal
Structures can show the parent of a compound that is named as a salt.
Measure: concentration at 0.08 h (ng/mL)
Numeric only. Scale: ng/mL

Entry Cc1nc2ccccn2c1-c1csc(Nc2ccc3c(c2)OC(F)(F)O3)n1 [Compound 16, hydrochloride] — recorded concentration at 0.08 h = 688

Entry [2H]C1([2H])Oc2ccc(Nc3nc(-c4c(C)nc5ccccn45)cs3)cc2O1 [Compound 17, hydrochloride] — recorded concentration at 0.08 h = 530

Entry [2H]C([2H])([2H])Oc1ccc(Nc2nc(-c3c(C)nc4ccccn34)cs2)cc1 [Compound 15, hydrochloride] — recorded concentration at 0.08 h = 228

###

Overview of recorded Tmax for various molecules
Test: Plasma pharmacokinetics and brain distribution after single IV, IP and oral administration
Assay type: in vivo
Conditions: male, C57BL/6, mouse; plasma, IP 10 mg/kg
Structures can show the parent of a compound that is named as a salt.
Numeric only. Scale: min

Use the examples below as a reference point.
Cc1nc2ccccn2c1-c1csc(Nc2ccc3c(c2)OC(F)(F)O3)n1 [Compound 16, hydrochloride]    4.8
[2H]C([2H])([2H])Oc1ccc(Nc2nc(-c3c(C)nc4ccccn34)cs2)cc1 [Compound 15, hydrochloride]    21

Turning to the following molecule.
Entry [2H]C1([2H])Oc2ccc(Nc3nc(-c4c(C)nc5ccccn45)cs3)cc2O1 [Compound 17, hydrochloride] — recorded Tmax = 4.8

###

Overview of recorded concentration at 3 h for various compounds
Assay: Plasma pharmacokinetics and brain distribution after single IV, IP and oral administration
Assay type: in vivo
Details: male, C57BL/6, mouse, in vivo, ip, 10 mg/kg, Mean brain conc.
Where a name gives a salt, the structure may show the parent alone.
Numeric only. Scale: ng/g

Use the examples below as a reference point.
[2H]C1([2H])Oc2ccc(Nc3nc(-c4c(C)nc5ccccn45)cs3)cc2O1 [Compound 17, hydrochloride]    82
[2H]C([2H])([2H])Oc1ccc(Nc2nc(-c3c(C)nc4ccccn34)cs2)cc1 [Compound 15, hydrochloride]    57.7

Turning to the following compound.
Entry Cc1nc2ccccn2c1-c1csc(Nc2ccc3c(c2)OC(F)(F)O3)n1 [Compound 16, hydrochloride] — recorded concentration at 3 h = 6.21
